System: conditioned avoidance response (CAR)
Test: conditioned avoidance response (CAR) in rats, shuttle box technique, oral
Assay type: in vivo
Settings: Rattus norvegicus; rats, oral; dose reducing by one-half the number of conditioned animals jumping the barrier before foot shock; read-out: ORAL CAR-ED50
Counter-ions that a name gives are not always drawn.
ENDPOINT: ED50 (mg/kg)
One number for each entry, in mg/kg.

Answered examples (3):
> print(dat)
                                   molecule  reading.unit  value.measured
1  COc1ccccc1N1CCN(CCCCn2nc3ccccn3c2=O)CC1 [Formula I, R^1 = H, R^2 = 2-CH3 O, Hydrochloride]         mg/kg            18.4
2  O=c1n(CCCN2CCN(c3cccc(Cl)c3)CC2)nc2ccccn12 [Trazodone]         mg/kg            45.4
3  O=c1n(CCCCN2CCN(c3cccc(Cl)c3)CC2)nc2ccccn12 [Formula I, R^1 = H, R^2 = 3-Cl]         mg/kg               9

Moving on to the next molecule.
Item Cl.O=c1n(CCCCN2CCN(c3cccc(C(F)(F)F)c3)CC2)nc2ccccn12 [Formula I, R^1 = H, R^2 = 3-CF3] with conditioned avoidance response (CAR) - ED50?
11.4

The measurements presented in this section are drawn from patent US4465683A.
